# run description: Lipophilicity, log D of the compound
# Assay type: physicochemical
# applied conditions: octanol/water
Is logD at least 2? Then fulfilled. If not, not fulfilled.

Decide: is the reported value of logD for [3H]N(c1ccc(-c2nc3ccc(O)cc3s2)cn1)C([3H])([3H])[3H] equal to or greater than 2?
not fulfilled

Decide: is the reported value of logD for [3H]N(c1ccc(-c2nc3ccc(OC)cc3s2)cn1)C([3H])([3H])[3H] equal to or greater than 2?
fulfilled

Decide: is the reported value of logD for CN(C)c1ncc(-c2nc3ccc(O)cc3s2)cn1 equal to or greater than 2?
fulfilled

Decide: is the reported value of logD for COc1ccc2cc(-c3ccc(C(N)=O)nc3)oc2c1 equal to or greater than 2?
not fulfilled

Decide: is the reported value of logD for [3H]N(c1ccc(-c2nc3ccc(O)cc3o2)cn1)C([3H])([3H])[3H] equal to or greater than 2?
not fulfilled

Decide: is the reported value of logD for [3H]C([3H])([3H])N(c1ncc(-c2nc3ccc(O)cc3o2)cn1)C([3H])([3H])[3H] equal to or greater than 2?
not fulfilled

Decide: is the reported value of logD for CNc1ncc(-c2nc3ccc(O)cc3s2)cn1 equal to or greater than 2?
not fulfilled

====

# run description: Lipophilicity, log D of the compound
# Format: physicochemical
# applied conditions: octanol/water
Is logD at least 3? Then true. If not, false.

Decide: is the reported value of logD for COc1ccc2nc(-c3ccc(N(C)C)nc3)sc2c1 equal to or greater than 3?
true

Decide: is the reported value of logD for CNc1ccc(-c2nc3ccc(OC)cc3o2)cn1 equal to or greater than 3?
false

Decide: is the reported value of logD for [3H]C([3H])([3H])N(c1ccc(-c2nc3ccc(OC)cc3o2)cn1)C([3H])([3H])[3H] equal to or greater than 3?
true

Decide: is the reported value of logD for [3H]C([3H])([3H])N(c1ccc(-c2nc3ccc(O)cc3s2)cn1)C([3H])([3H])[3H] equal to or greater than 3?
false

Decide: is the reported value of logD for COc1ccc2cc(-c3ccc(C(N)=O)cn3)oc2c1 equal to or greater than 3?
false

Decide: is the reported value of logD for CNc1ccc(-c2nc3ccc(C(N)=O)cc3s2)cn1 equal to or greater than 3?
false

Decide: is the reported value of logD for CNc1ccc(-c2nc3cc(O)ccc3s2)cn1 equal to or greater than 3?
false

Decide: is the reported value of logD for CNc1ccc(-c2cc3ccc(OC)cc3o2)cn1 equal to or greater than 3?
true

Decide: is the reported value of logD for [3H]C([3H])([3H])N(c1ccc(-c2nc3ccc(O)cc3o2)cn1)C([3H])([3H])[3H] equal to or greater than 3?
false

Decide: is the reported value of logD for CNc1ccc2nc(-c3ccc(C(N)=O)nc3)sc2c1 equal to or greater than 3?
false

Decide: is the reported value of logD for CN(C)c1ccc(-c2nc3cc(O)ccc3o2)cn1 equal to or greater than 3?
false

====

# assayed system: Amyloid-beta precursor protein (Homo sapiens, UniProt P05067)
# Sequence (P05067 whole entry): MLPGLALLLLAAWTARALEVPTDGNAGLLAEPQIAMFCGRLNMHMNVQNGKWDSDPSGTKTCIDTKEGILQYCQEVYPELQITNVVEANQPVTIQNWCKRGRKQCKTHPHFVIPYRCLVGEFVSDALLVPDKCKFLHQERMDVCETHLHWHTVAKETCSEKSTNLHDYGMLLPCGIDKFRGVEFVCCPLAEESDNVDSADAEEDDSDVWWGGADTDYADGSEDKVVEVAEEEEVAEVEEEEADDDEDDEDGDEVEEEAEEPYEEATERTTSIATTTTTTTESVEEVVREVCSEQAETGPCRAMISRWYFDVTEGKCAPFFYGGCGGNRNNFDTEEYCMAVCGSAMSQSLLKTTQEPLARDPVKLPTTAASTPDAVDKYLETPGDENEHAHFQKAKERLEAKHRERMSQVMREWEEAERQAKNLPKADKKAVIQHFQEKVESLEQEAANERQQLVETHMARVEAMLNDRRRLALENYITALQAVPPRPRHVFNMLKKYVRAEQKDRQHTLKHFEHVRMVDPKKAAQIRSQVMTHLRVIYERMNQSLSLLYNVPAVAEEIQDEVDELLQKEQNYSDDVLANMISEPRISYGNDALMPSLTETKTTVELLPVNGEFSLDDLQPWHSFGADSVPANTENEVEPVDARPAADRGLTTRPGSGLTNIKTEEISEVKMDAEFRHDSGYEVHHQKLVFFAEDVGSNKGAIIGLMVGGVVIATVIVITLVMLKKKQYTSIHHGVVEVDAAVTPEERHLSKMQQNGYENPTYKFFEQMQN
For each record, write down the corresponding IC50.
The reply should contain only the number, in µM.

Reported Amyloid-beta precursor protein (Homo sapiens, UniProt P05067) IC50 for item CN(C)c1ncc(-c2nc3ccc(O)cc3s2)cn1 was 0.041

Reported Amyloid-beta precursor protein (Homo sapiens, UniProt P05067) IC50 for item COc1ccc2nc(-c3ccc(N(C)C)nc3)sc2c1 was 0.081

Reported Amyloid-beta precursor protein (Homo sapiens, UniProt P05067) IC50 for item CN(C)c1ccc(-c2nc3cc(O)ccc3o2)cn1 was 0.137

Reported Amyloid-beta precursor protein (Homo sapiens, UniProt P05067) IC50 for item CNc1ccc2nc(-c3ccc(C(N)=O)nc3)sc2c1 was 0.035

Reported Amyloid-beta precursor protein (Homo sapiens, UniProt P05067) IC50 for item [3H]C([3H])([3H])N(c1ccc(-c2nc3ccc(O)cc3o2)cn1)C([3H])([3H])[3H] was 0.085

Reported Amyloid-beta precursor protein (Homo sapiens, UniProt P05067) IC50 for item COc1ccc2cc(-c3ccc(C(N)=O)nc3)oc2c1 was 0.06

Reported Amyloid-beta precursor protein (Homo sapiens, UniProt P05067) IC50 for item CNc1ccc(-c2cc3ccc(O)cc3o2)cn1 was 0.045

Reported Amyloid-beta precursor protein (Homo sapiens, UniProt P05067) IC50 for item [3H]C([3H])([3H])N(c1ccc(-c2nc3ccc(O)cc3s2)cn1)C([3H])([3H])[3H] was 0.019

Reported Amyloid-beta precursor protein (Homo sapiens, UniProt P05067) IC50 for item CNc1ccc(-c2nc3cc(O)ccc3s2)cn1 was 0.074

Reported Amyloid-beta precursor protein (Homo sapiens, UniProt P05067) IC50 for item CNc1ccc(-c2cc3ccc(OC)cc3o2)cn1 was 0.066

Reported Amyloid-beta precursor protein (Homo sapiens, UniProt P05067) IC50 for item [3H]N(c1ccc(-c2nc3ccc(O)cc3o2)cn1)C([3H])([3H])[3H] was 0.182

====

# assayed system: Amyloid-beta precursor protein (Homo sapiens)
# run description: Binding affinity to Abeta (1 to 40) in brain cortex of patient with Alzheimer's disease by autoradiography relative to non-specific unlabelled PIB binding
# Assay type: tissue-based
# applied conditions: tested as the 3H-labelled form
The source made the active and inactive calls. The calls are words filed in the database; no cut-off is given here.
Write down the outcome that applies. Available outcomes: 1 = active, -1 = inactive

Per the assay record, what outcome was assigned to CNc1ccc(-c2nc3ccc(O)cc3o2)cn1 ?
1

Per the assay record, what outcome was assigned to COc1ccc2nc(-c3ccc(N(C)C)nc3)oc2c1 ?
-1

Per the assay record, what outcome was assigned to CN(C)c1ccc(-c2nc3ccc(O)cc3s2)cn1 ?
-1

Per the assay record, what outcome was assigned to CNc1ccc(-c2nc3ccc(OC)cc3s2)cn1 ?
-1

Per the assay record, what outcome was assigned to CNc1ccc(-c2nc3ccc(O)cc3s2)cn1 ?
1
